Data origin, for the record: ChEMBL document CHEMBL4689842

# Tested on: HEK-293T
# protocol summary: Multiplex assay against HEK293T
# Assay type: toxicity, cell-based
# run conditions: human, 24 h, 1 µM, compound concentration 1 uM, replicate 2
Class definitions on Population Mitochondria Different-Phenotype (%): bottom = under 10%, middle = from 10% up to 40%, top = 40% and over

1) O=c1[nH]c2ccccc2n1C1CCN(Cc2ccc(-c3[nH]c4cc5ncnc5cc4nc3-c3ccccc3)cc2)CC1
bottom
2) CN1CCN(Cc2ccc(Nc3ncc(Cl)c(Nc4ccccc4S(=O)(=O)N(C)C)n3)cc2)CC1
bottom
3) Cc1cccc(CN2CCN(C(c3ccccc3)c3ccc(Cl)cc3)CC2)c1.Cl.Cl (stereo unspecified)
middle
4) COc1ccccc1CN[C@H]1C2CCN(CC2)[C@H]1C(c1ccccc1)c1ccccc1
middle
5) C=CC(=O)Nc1ccc2[nH]c(=O)n(C3CCN(Cc4ccc(-c5nc6cc[nH]c(=O)c6cc5-c5ccccc5)cc4)CC3)c2c1
bottom
6) CC(C)NC(=O)N1CC[C@H](NC2=Nc3cc(F)ccc3N(CC(F)F)c3ccc(Cl)cc32)C1
middle
7) Cc1ccc2c(c1)c1c(n2CCc2ccc(C)nc2)CCN(C)C1 [LATREPIRDINE]
top
8) COc1cc2ncn(-c3cc(OCc4ccccc4C(F)(F)F)c(C(N)=O)s3)c2cc1OC [GW843682X]
top
9) CC(C)CC(=O)Nc1[nH]nc2c1CN(C(=O)C1CCN(C)CC1)C2(C)C
bottom
10) C=CC(=O)Nc1cccc(Sc2nc(Nc3ccc(N4CCN(C)CC4)cc3)ncc2Cl)c1
top
11) O=C(c1cc2c(cc1F)OC(c1ccc(F)cc1)(c1ccc(Cl)cc1Cl)O2)N1CCOCC1 (stereo unspecified)
middle
12) Cl.O=C(O)c1cc(-c2ccc(C3CCNCC3)cc2)c2ccc(-c3ccc(C(F)(F)F)cc3)cc2c1
middle
13) CCCSc1nc(N[C@@H]2C[C@H]2c2ccc(F)c(F)c2)c2nnn([C@@H]3C[C@H](OCCO)[C@@H](O)[C@H]3O)c2n1
middle
14) C=CC(=O)Nc1cccc(Oc2nc(Nc3ccc(N4CCN(C)CC4)cc3OC)ncc2Cl)c1
middle
15) CCc1nn(CCCN2CCN(c3cccc(Cl)c3)CC2)c(=O)n1CCOc1ccccc1.Cl [NEFAZODONE HYDROCHLORIDE]
top

###

# Tested on: HEK-293T
# protocol summary: Multiplex assay against HEK293T;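 on Population Tubulin-Different-Phenotype (%): share of the cells with healthy nuclei that show this phenotype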
# Type: toxicity, cell-based
# run conditions: human, 24 h, 1 µM, compound concentration 1 uM, replicate 2
reported property: Population Tubulin-Different-Phenotype (%)

1. COc1cc(Nc2nccc(-c3cnn4nc(OC)ccc34)n2)cc(C(F)(F)F)c1
17
2. COc1ccc(-c2ccc3ncc4c(c3c2)n(-c2ccc(N3CCNCC3)c(C(F)(F)F)c2)c(=O)n4C)cn1.O=C(O)/C=C\C(=O)O
92
3. CC(C)NC(=O)N1CC[C@H](NC2=Nc3cc(F)ccc3N(CC(F)F)c3ccc(Cl)cc32)C1
25
4. Cc1cc(C)c(-n2ccn3nc(-c4cccnc4)cc23)cc1NC(=O)c1cc(C#N)cc(S(F)(F)(F)(F)F)c1
87
5. O=c1cc(N2CCOCC2)oc2c(-c3cccc4c3sc3ccccc34)cccc12
38
6. CCc1ccc(OCc2ccccc2C(=O)Nc2ccc3nc(C)cc(N)c3c2)cc1.Cl
100
7. COc1ccccc1CN[C@H]1C2CCN(CC2)[C@H]1C(c1ccccc1)c1ccccc1
20
8. C=CC(=O)Nc1cccc(Sc2nc(Nc3ccc(N4CCN(C)CC4)cc3)ncc2Cl)c1
97

###

Measured Population Fragmented Nuclei (%) by item
# System: U2OS
# protocol summary: Multiplex assay against U2OS
# Assay type: toxicity, cell-based
# run conditions: human, 24 h, 1 µM, compound concentration 1 uM, replicate 2
reported property: Population Fragmented Nuclei (%)

1) CCCSc1nc(N[C@@H]2C[C@H]2c2ccc(F)c(F)c2)c2nnn([C@@H]3C[C@H](OCCO)[C@@H](O)[C@H]3O)c2n1
3
2) COc1ccc(-c2ccc3ncc4c(c3c2)n(-c2ccc(N3CCNCC3)c(C(F)(F)F)c2)c(=O)n4C)cn1.O=C(O)/C=C\C(=O)O
20
3) CC(C)Oc1ccccc1C(=O)Nc1ccccc1C(=O)Nc1cccc(S(=O)(=O)C(F)(F)F)c1
21
4) CC(C)c1noc(N2CCC(COc3ccc(-c4ccc(S(C)(=O)=O)cc4)nc3)CC2)n1
14

###

# Tested on: HEK-293T
# protocol summary: Multiplex assay against HEK293T
# Type: toxicity, cell-based
# run conditions: human, 48 h, 1 µM, compound concentration 1 uM, replicate 2
reported property: Population Membrane Permeable-Phenotype (%)

1. Cl.O=C(O)c1cc(-c2ccc(C3CCNCC3)cc2)c2ccc(-c3ccc(C(F)(F)F)cc3)cc2c1
4%
2. CC1=C(C(=O)Nc2cc3cn[nH]c3cc2F)C(c2ccc(C(F)(F)F)cc2)CC(=O)N1 (stereo not drawn)
8%
3. COc1cc(Nc2nccc(-c3cnn4nc(OC)ccc34)n2)cc(C(F)(F)F)c1
5%
4. COc1ccccc1CN[C@H]1C2CCN(CC2)[C@H]1C(c1ccccc1)c1ccccc1
6%
5. CCc1nn(CCCN2CCN(c3cccc(Cl)c3)CC2)c(=O)n1CCOc1ccccc1.Cl [NEFAZODONE HYDROCHLORIDE]
6%
6. C[C@]12CC[C@@H]3c4ccc(O)cc4CC[C@H]3[C@@H]1CC[C@@H]2O
8%
7. Cc1ccc2c(c1)c1c(n2CCc2ccc(C)nc2)CCN(C)C1 [LATREPIRDINE]
8%
8. CNC(=O)Nc1ccc(-c2nc(N3CC4CCC(C3)O4)c3cnn(C4CCC5(CC4)OCCO5)c3n2)cc1
1%

###

# Test system: HEK-293T
# protocol summary: Multiplex assay against HEK293T
# Type: toxicity, cell-based
# run conditions: human, 24 h, 10 µM, compound concentration 10 uM, replicate 2
reported property: Population Mitotic Cells (%)

1) CN1CCN(Cc2ccc(Nc3ncc(Cl)c(Nc4ccccc4S(=O)(=O)N(C)C)n3)cc2)CC1
71
2) CCc1nn(CCCN2CCN(c3cccc(Cl)c3)CC2)c(=O)n1CCOc1ccccc1.Cl [NEFAZODONE HYDROCHLORIDE]
2
3) O=C(c1cc2c(cc1F)OC(c1ccc(F)cc1)(c1ccc(Cl)cc1Cl)O2)N1CCOCC1 (stereo not given)
46
4) COc1ccccc1CN[C@H]1C2CCN(CC2)[C@H]1C(c1ccccc1)c1ccccc1
73
5) C=CC(=O)Nc1ccc2[nH]c(=O)n(C3CCN(Cc4ccc(-c5nc6cc[nH]c(=O)c6cc5-c5ccccc5)cc4)CC3)c2c1
83
6) CC(C)(C)NC[C@H](O)COc1nsnc1N1CCOCC1
91
7) CC(C)NC(=O)N1CC[C@H](NC2=Nc3cc(F)ccc3N(CC(F)F)c3ccc(Cl)cc32)C1
62
8) C=CC(=O)Nc1cccc(Oc2nc(Nc3ccc(N4CCN(C)CC4)cc3OC)ncc2Cl)c1
97
9) Cl.O=C(O)c1cc(-c2ccc(C3CCNCC3)cc2)c2ccc(-c3ccc(C(F)(F)F)cc3)cc2c1
39
10) CNC(=O)Nc1ccc(-c2nc(N3CC4CCC(C3)O4)c3cnn(C4CCC5(CC4)OCCO5)c3n2)cc1
31
11) Cc1nc(N2CC[C@H](O)C2)ncc1-c1cc(C(F)(F)F)cc2[nH]ncc12
93
12) O=c1[nH]c2ccccc2n1C1CCN(Cc2ccc(-c3[nH]c4cc5ncnc5cc4nc3-c3ccccc3)cc2)CC1
71
13) Cc1ccc(C)c(Oc2ccncc2C(=O)N2CCN(C3CC3)c3ccccc32)c1
31
14) COc1ccc(-c2ccc3ncc4c(c3c2)n(-c2ccc(N3CCNCC3)c(C(F)(F)F)c2)c(=O)n4C)cn1.O=C(O)/C=C\C(=O)O
1
15) O=c1cc(N2CCOCC2)oc2c(-c3cccc4c3sc3ccccc34)cccc12
39

###

# Test system: U2OS
# protocol summary: Multiplex assay against U2OS
# Type: toxicity, cell-based
# run conditions: human, 12 h, 1 µM, compound concentration 1 uM, replicate 1
Measured Total Cell Count by item
reported property: Total Cell Count

1. CC(C)Oc1ccccc1C(=O)Nc1ccccc1C(=O)Nc1cccc(S(=O)(=O)C(F)(F)F)c1
120
2. Cc1ccccc1C(c1ccccc1C)N1C2CCC1CC(O)(c1ccccc1)C2 (stereo not drawn)
131
3. C=CC(=O)Nc1cccc(Sc2nc(Nc3ccc(N4CCN(C)CC4)cc3)ncc2Cl)c1
197
4. O=c1[nH]c2ccccc2n1C1CCN(Cc2ccc(-c3[nH]c4cc5ncnc5cc4nc3-c3ccccc3)cc2)CC1
162
5. CCCSc1nc(N[C@@H]2C[C@H]2c2ccc(F)c(F)c2)c2nnn([C@@H]3C[C@H](OCCO)[C@@H](O)[C@H]3O)c2n1
116
6. Cc1ccc2c(c1)c1c(n2CCc2ccc(C)nc2)CCN(C)C1 [LATREPIRDINE]
147
7. CCOC(=O)Nc1cc(-c2ccc(C)c(NS(C)(=O)=O)c2)nn2c(C)nnc12
184
8. CN1CCN(Cc2ccc(Nc3ncc(Cl)c(Nc4ccccc4S(=O)(=O)N(C)C)n3)cc2)CC1
172
9. COc1cc2ncn(-c3cc(OCc4ccccc4C(F)(F)F)c(C(N)=O)s3)c2cc1OC [GW843682X]
170
10. Cc1nc(N2CC[C@H](O)C2)ncc1-c1cc(C(F)(F)F)cc2[nH]ncc12
181
11. CNC(=O)Nc1ccc(-c2nc(N3CC4CCC(C3)O4)c3cnn(C4CCC5(CC4)OCCO5)c3n2)cc1
90
12. C[C@]12CC[C@@H]3c4ccc(O)cc4CC[C@H]3[C@@H]1CC[C@@H]2O
138
13. CC(C)OC(=O)N1CCC(Oc2ncnc3c2cnn3-c2ccc(S(C)(=O)=O)cc2F)CC1
95
14. CC(C)c1noc(N2CCC(COc3ccc(-c4ccc(S(C)(=O)=O)cc4)nc3)CC2)n1
304
15. CC(C)CC(=O)Nc1[nH]nc2c1CN(C(=O)C1CCN(C)CC1)C2(C)C
161
16. Cc1ccc(C)c(Oc2ccncc2C(=O)N2CCN(C3CC3)c3ccccc32)c1
135
17. C=CC(=O)Nc1cccc(Oc2nc(Nc3ccc(N4CCN(C)CC4)cc3OC)ncc2Cl)c1
140
18. Cl.O=C(O)c1cc(-c2ccc(C3CCNCC3)cc2)c2ccc(-c3ccc(C(F)(F)F)cc3)cc2c1
201
